Where these numbers come from: patent US20210332145A1

Biological target: T1, human BCMA with a His tag (ACROBiosystems, Catalog No.: BCA-H522y) (human)
T1 construct: Bought His-tagged recombinant protein; also called huBCMA-His; Recombinant human BCMA
T1 chain: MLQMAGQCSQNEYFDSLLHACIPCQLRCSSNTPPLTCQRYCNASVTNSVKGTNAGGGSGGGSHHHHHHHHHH
Experiment: SPR, Biacore T200
Record form. Attribute: koff. Fill in for each entry.
Answers are plain numbers, in s⁻¹.

Known koff results, listed for orientation:
{"columns": ["Binder", "Readout", "Value"],
 "data": [
  ["SCT-Aa06(h/h) (antibody, V domains shown, Full IgG format, chimeric: human IgG1 heavy chain constant region, human kappa light chain constant region) VH: EVQLQQSGPELVKPGNSVKISCKASGYSFTGYFMNWVMQSHGKSLEWIGRINPYNGDTFYNQKFKGKATLTVDKSSSTAHMELRSLTSEDSAVYYCARLDYTNYNSYPMDYWGQGTSVTVSS VL: DIQMTHTTSSLSASLGDRVTISCSASQGISNYLNWYLQKPDGTVKLLIYYTSNLHSGVPSRFSGSGSGTDFSLTISNLQPEDIATYYCQQYSKFPWTFGGGTKLEIK", "koff", 0.02],
  ["SCT-Aa03(h/h) (antibody, V domains shown, Full IgG format, chimeric: human IgG1 heavy chain constant region, human kappa light chain constant region) VH: EVKLLQSGGGLVQPGGSLKLSCAASGIDFSRYWMSWVRRAPGKGLEWIGEINPDSSTINYAPSLKDKFIISRDNAKNTLYLQMSKVRSEDTALYYCASFYYDYDHAMDYWGQGTSVTVSS VL: DIVMTQSQKFMSTSVGDRFSVTCKASQNVGTNVAWYQQKPGQSPKALIYSASYRFSGVPDRFTGSGSGTDFTLTISNVQSEDLAEYFCQQYNSYPFTFGSGTKLEIK", "koff", 0.00284],
  ["SCT-Aa17(h/h) (antibody, V domains shown, Full IgG format, chimeric: human IgG1 heavy chain constant region, human kappa light chain constant region) VH: EVQLQQSGPELVKPGASVKMSCKASGYTFTSYVMDWVKQKPGQGLEWIGYINPYNDGTKYNEKFKGKATLTSDKSSSTVYMELSSLTSEDSAVYHCARSDYDYGYAMDYWGQGTSVTVSS VL: DIQMTQSPASLSLSVGETVTITCRASENIYSNLAWYQQKQGNSPQLLVYSATHLADGVPSRFSGSGSGTQYSLKINSLQSEDFGCYYCQHFWGPPWTFGGGTKLEIK", "koff", 0.0132]
]}

Below: the item to evaluate.
-- ask # koff lookup, item SCT-Aa10(m/m) (antibody, V domains shown, Full IgG format: mouse IgG1 heavy chain constant region, mouse kappa light chain constant region) VH: QVQLQQSDAELVKPGASVKISCKVSGYTFTDHTIHWMKQRPEQGLEWIGYIFPRDGNTKYNEKFKGKATMTADKSSSTAYMQLNSLTSEDSAVYFCARWDYEGFDCWGQGTTLTVSS VL: DIVMTQSPATLSVTPGDRVSLSCRASQSISDYLHWYQQKSHESPRLLIKYASQSISGIPSRFSGSGSGSDFTLSINSVEPEDVGVYFCQNGHSFPPTFGSGTKLEIK
-- reply 0.0224
